Target: von Hippel-Lindau disease tumor suppressor/Dual specificity mitogen-activated protein kinase kinase 2/Dual specificity mitogen-activated protein kinase kinase 1 (Homo sapiens) (UniProt P36507+Q02750+P40337)
Sequence (P40337 whole entry, looked up, one chain of several): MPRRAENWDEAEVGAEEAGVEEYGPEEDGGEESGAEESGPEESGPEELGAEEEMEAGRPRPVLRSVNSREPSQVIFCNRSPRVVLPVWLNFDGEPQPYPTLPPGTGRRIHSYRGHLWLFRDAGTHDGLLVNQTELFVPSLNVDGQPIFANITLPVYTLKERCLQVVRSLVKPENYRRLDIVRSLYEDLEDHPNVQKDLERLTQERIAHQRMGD
Assay: Protac activity at VHL/MEK1/2 in human A549 cells assessed as MEK1/2 degradation at 10 uM incubated for 24 hrs by Western blot analysis relative to control
Format: cell-based
Activity calls are given as the source filed them. No cut-off for these calls is given here.
metric-name: Activity

[[record]]
line_notation = "Cc1ncsc1-c1ccc([C@H](C)NC(=O)[C@@H]2C[C@@H](O)CN2C(=O)[C@@H](NCCOCCOCCOCCn2cc(CNc3cccc(Cc4c(C)c5ccc(Oc6ncccn6)cc5oc4=O)c3)nn2)C(C)(C)C)cc1"
result = "inactive"

[[record]]
line_notation = "Cc1ncsc1-c1ccc([C@H](C)NC(=O)[C@@H]2C[C@@H](O)CN2C(=O)[C@@H](NCCOCCOCCOCCn2cc(CNc3cccc(Cc4c(C)c5ccc(Oc6ncccn6)cc5oc4=O)c3F)nn2)C(C)(C)C)cc1"
result = "inactive"

[[record]]
line_notation = "Cc1ncsc1-c1ccc([C@H](C)NC(=O)[C@@H]2C[C@@H](O)CN2C(=O)[C@@H](NCCOCCOCCOCCOCCOCCn2cc(CNc3cccc(Cc4c(C)c5ccc(Oc6ncccn6)cc5oc4=O)c3F)nn2)C(C)(C)C)cc1"
result = "inactive"

[[record]]
line_notation = "Cc1ncsc1-c1ccc([C@H](C)NC(=O)[C@@H]2C[C@@H](O)CN2C(=O)[C@@H](NCCOCCOCCn2cc(CNc3cccc(Cc4c(C)c5ccc(Oc6ncccn6)cc5oc4=O)c3F)nn2)C(C)(C)C)cc1"
result = "20%"

[[record]]
line_notation = "Cc1ncsc1-c1ccc([C@H](C)NC(=O)[C@@H]2C[C@@H](O)CN2C(=O)[C@@H](NCCOCCOCCOCCOCCn2cc(CNc3cccc(Cc4c(C)c5ccc(Oc6ncccn6)cc5oc4=O)c3)nn2)C(C)(C)C)cc1"
result = "inactive"


* * *

Molecular target: von Hippel-Lindau disease tumor suppressor/Dual specificity mitogen-activated protein kinase kinase 2/Dual specificity mitogen-activated protein kinase kinase 1 (Homo sapiens) (UniProt P36507+Q02750+P40337)
Assay: Protac activity at VHL/MEK1/2 in human A549 cells assessed as MEK1/2 degradation at 1 uM incubated for 24 hrs by Western blot analysis relative to control
Type: cell-based
metric-name: Activity (%)

[[record]]
line_notation = "Cc1ncsc1-c1ccc([C@H](C)NC(=O)[C@@H]2C[C@@H](O)CN2C(=O)[C@@H](NC(=O)CCC(=O)NCCCCCCCC(=O)Nc2cccc(Cc3c(C)c4ccc(Oc5ncccn5)cc4oc3=O)c2F)C(C)(C)C)cc1"
censoring_qualifier = "="
number = 78

[[record]]
line_notation = "Cc1ncsc1-c1ccc([C@H](C)NC(=O)[C@@H]2C[C@@H](O)CN2C(=O)[C@@H](NC(=O)CCC(=O)NCCCCC(=O)Nc2cccc(Cc3c(C)c4ccc(Oc5ncccn5)cc4oc3=O)c2F)C(C)(C)C)cc1"
censoring_qualifier = "="
number = 85

[[record]]
line_notation = "Cc1ncsc1-c1ccc([C@H](C)NC(=O)[C@@H]2C[C@@H](O)CN2C(=O)[C@@H](NC(=O)CCC(=O)NCCCC(=O)Nc2cccc(Cc3c(C)c4ccc(Oc5ncccn5)cc4oc3=O)c2F)C(C)(C)C)cc1"
censoring_qualifier = "="
number = 20

[[record]]
line_notation = "Cc1ncsc1-c1ccc([C@H](C)NC(=O)[C@@H]2C[C@@H](O)CN2C(=O)[C@@H](NC(=O)CCC(=O)NCCCCCC(=O)Nc2cccc(Cc3c(C)c4ccc(Oc5ncccn5)cc4oc3=O)c2F)C(C)(C)C)cc1"
censoring_qualifier = "="
number = 72

[[record]]
line_notation = "Cc1ncsc1-c1ccc([C@H](C)NC(=O)[C@@H]2C[C@@H](O)CN2C(=O)[C@@H](NC(=O)CCC(=O)NCCCC(=O)Nc2cccc(Cc3c(C)c4ccc(Oc5ncccn5)cc4oc3=O)c2)C(C)(C)C)cc1"
censoring_qualifier = "<"
number = 5

[[record]]
line_notation = "Cc1ncsc1-c1ccc([C@H](C)NC(=O)[C@@H]2C[C@@H](O)CN2C(=O)[C@@H](NC(=O)CCC(=O)NCCCCCCCCCCC(=O)Nc2cccc(Cc3c(C)c4ccc(Oc5ncccn5)cc4oc3=O)c2)C(C)(C)C)cc1"
censoring_qualifier = "<"
number = 5

[[record]]
line_notation = "Cc1ncsc1-c1ccc([C@H](C)NC(=O)[C@@H]2C[C@@H](O)CN2C(=O)[C@@H](NC(=O)CCC(=O)NCCCCCCCCCCCC(=O)Nc2cccc(Cc3c(C)c4ccc(Oc5ncccn5)cc4oc3=O)c2)C(C)(C)C)cc1"
censoring_qualifier = "<"
number = 5

[[record]]
line_notation = "Cc1ncsc1-c1ccc([C@H](C)NC(=O)[C@@H]2C[C@@H](O)CN2C(=O)[C@@H](NC(=O)CCC(=O)NCCCCCCC(=O)Nc2cccc(Cc3c(C)c4ccc(Oc5ncccn5)cc4oc3=O)c2F)C(C)(C)C)cc1"
censoring_qualifier = "="
number = 70

[[record]]
line_notation = "Cc1ncsc1-c1ccc([C@H](C)NC(=O)[C@@H]2C[C@@H](O)CN2C(=O)[C@@H](NC(=O)CCC(=O)NCCCCCCC(=O)Nc2cccc(Cc3c(C)c4ccc(Oc5ncccn5)cc4oc3=O)c2)C(C)(C)C)cc1"
censoring_qualifier = "<"
number = 5


* * *

Biological target: von Hippel-Lindau disease tumor suppressor/Dual specificity mitogen-activated protein kinase kinase 2/Dual specificity mitogen-activated protein kinase kinase 1 (Homo sapiens) (UniProt P36507+Q02750+P40337)
Experiment: Protac activity at VHL/MEK1/2 in human A549 cells assessed as MEK1/2 degradation at 10 uM incubated for 24 hrs by Western blot analysis relative to control
Format: cell-based
The source made the active and inactive calls. The rule behind the calls is not given here.
metric-name: Activity

[[record]]
line_notation = "Cc1ncsc1-c1ccc([C@H](C)NC(=O)[C@@H]2C[C@@H](O)CN2C(=O)[C@@H](NCCOCCOCCn2cc(CNc3cccc(Cc4c(C)c5ccc(Oc6ncccn6)cc5oc4=O)c3)nn2)C(C)(C)C)cc1"
result = "inactive"

[[record]]
line_notation = "Cc1ncsc1-c1ccc([C@H](C)NC(=O)[C@@H]2C[C@@H](O)CN2C(=O)[C@@H](NCCOCCOCCOCCOCCn2cc(CNc3cccc(Cc4c(C)c5ccc(Oc6ncccn6)cc5oc4=O)c3F)nn2)C(C)(C)C)cc1"
result = "inactive"

[[record]]
line_notation = "Cc1ncsc1-c1ccc([C@H](C)NC(=O)[C@@H]2C[C@@H](O)CN2C(=O)[C@@H](NCCOCCOCCOCCOCCOCCn2cc(CNc3cccc(Cc4c(C)c5ccc(Oc6ncccn6)cc5oc4=O)c3)nn2)C(C)(C)C)cc1"
result = "inactive"


* * *

Target: Protein cereblon/Dual specificity mitogen-activated protein kinase kinase 1/Dual specificity mitogen-activated protein kinase kinase 2 (Homo sapiens) (UniProt P36507+Q02750+Q96SW2)
Sequence (P36507 whole entry, looked up): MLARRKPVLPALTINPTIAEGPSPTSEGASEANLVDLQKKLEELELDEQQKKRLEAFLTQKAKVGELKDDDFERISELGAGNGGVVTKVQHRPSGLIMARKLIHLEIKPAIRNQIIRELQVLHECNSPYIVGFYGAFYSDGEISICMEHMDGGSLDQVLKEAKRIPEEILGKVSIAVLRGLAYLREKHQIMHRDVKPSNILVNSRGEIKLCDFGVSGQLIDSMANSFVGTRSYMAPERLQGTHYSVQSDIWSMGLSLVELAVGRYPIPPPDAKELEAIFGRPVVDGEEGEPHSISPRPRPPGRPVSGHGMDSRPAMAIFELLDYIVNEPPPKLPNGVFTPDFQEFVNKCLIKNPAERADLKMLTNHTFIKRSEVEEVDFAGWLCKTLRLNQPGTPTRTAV
Sequence (Q02750 whole entry, looked up): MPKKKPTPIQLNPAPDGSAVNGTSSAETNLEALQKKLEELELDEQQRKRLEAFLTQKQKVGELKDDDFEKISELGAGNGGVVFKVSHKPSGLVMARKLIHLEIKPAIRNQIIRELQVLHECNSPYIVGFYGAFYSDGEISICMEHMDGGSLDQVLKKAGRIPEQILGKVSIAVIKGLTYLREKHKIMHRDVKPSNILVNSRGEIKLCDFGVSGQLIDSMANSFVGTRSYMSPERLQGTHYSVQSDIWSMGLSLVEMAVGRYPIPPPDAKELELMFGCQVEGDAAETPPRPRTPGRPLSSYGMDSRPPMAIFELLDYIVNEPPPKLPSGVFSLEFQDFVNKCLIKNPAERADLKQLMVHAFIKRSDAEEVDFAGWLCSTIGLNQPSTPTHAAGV
Sequence (Q96SW2 whole entry, looked up): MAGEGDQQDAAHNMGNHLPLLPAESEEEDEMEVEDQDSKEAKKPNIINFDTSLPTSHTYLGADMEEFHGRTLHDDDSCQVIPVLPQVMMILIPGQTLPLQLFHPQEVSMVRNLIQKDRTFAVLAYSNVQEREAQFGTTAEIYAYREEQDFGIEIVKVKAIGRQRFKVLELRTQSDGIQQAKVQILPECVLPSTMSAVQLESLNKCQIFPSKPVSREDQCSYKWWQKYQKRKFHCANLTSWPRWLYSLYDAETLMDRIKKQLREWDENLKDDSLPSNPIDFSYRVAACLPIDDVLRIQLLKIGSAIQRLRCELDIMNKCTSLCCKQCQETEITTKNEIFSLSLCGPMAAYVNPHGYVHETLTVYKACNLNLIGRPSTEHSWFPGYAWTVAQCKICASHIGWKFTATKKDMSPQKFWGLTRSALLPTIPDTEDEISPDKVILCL
Assay: Protac activity at CRBN/MEK1/2 in human A549 cells assessed as MEK1/2 degradation at 1 uM incubated for 24 hrs by Western blot analysis relative to control
Assay type: cell-based
Active and inactive are the calls of the source. The rule behind the calls is not given here.
metric-name: Activity

[[record]]
compound = "Cc1c(Cc2cccc(NC(=O)CCCNC(=O)CCC(=O)Nc3cccc4c3C(=O)N(C3CCC(=O)NC3=O)C4=O)c2F)c(=O)oc2cc(Oc3ncccn3)ccc12 (stereo not given)"
result = "inactive"

[[record]]
compound = "Cc1c(Cc2cccc(NC(=O)CCCCCCNC(=O)CCC(=O)Nc3cccc4c3C(=O)N(C3CCC(=O)NC3=O)C4=O)c2F)c(=O)oc2cc(Oc3ncccn3)ccc12 (stereo not given)"
result = "45%"

[[record]]
compound = "Cc1c(Cc2cccc(NC(=O)CCCCNC(=O)CCC(=O)Nc3cccc4c3C(=O)N(C3CCC(=O)NC3=O)C4=O)c2F)c(=O)oc2cc(Oc3ncccn3)ccc12 (stereo not given)"
result = "< 5%"

[[record]]
compound = "Cc1c(Cc2cccc(NC(=O)CCCCCCCNC(=O)CCC(=O)Nc3cccc4c3C(=O)N(C3CCC(=O)NC3=O)C4=O)c2F)c(=O)oc2cc(Oc3ncccn3)ccc12 (stereo not given)"
result = "30%"

[[record]]
compound = "Cc1c(Cc2cccc(NC(=O)CCCCCNC(=O)CCC(=O)Nc3cccc4c3C(=O)N(C3CCC(=O)NC3=O)C4=O)c2F)c(=O)oc2cc(Oc3ncccn3)ccc12 (stereo not given)"
result = "inactive"

